target: UniProt:O15527; experiment: Biochemical fluorescence assay to measure enzymatic activity of hOGG1 (OGG1/APEX IC50); parameters: Protein His-hOGG1 (12-323) was prepared; His (N); host or cells: E. coli; settings: 1 nM OGG1+2 nM APEX+6 nM dsDNA (8-oxo-dG substrate); pH 7.5; RT 40 min; read-out: OGG1/APEX IC50
pIC50: −log10 of the molar value.
Reported pIC50 values for a set of molecules

Answered cases to consult:
[[record]]
molecule = "COc1cc(NC(=O)[C@]2(C)CC[C@@H](N3Cc4c(C)cccc4NC3=O)CC2)ccc1C (single isomer, unassigned) [Example 102]"
result = "5.00 to 6.00"

[[record]]
molecule = "CNC(=O)c1cc(C)c2c(c1)C(=O)N([C@H]1CC[C@@H](C(=O)Nc3ccc(C)c(OC)c3)CC1)C2 [Example 212]"
result = "6.00 to 7.00"

[[record]]
molecule = "COc1cc(NC(=O)[C@H]2CC[C@@H](N3Cc4c(cccc4C4CC4)C3=O)CC2)ccc1C [Example 151]"
result = "5.00 to 6.00"

[[record]]
molecule = "COc1cc(NC(=O)[C@H]2CC[C@@H](N3Cc4c(C)cc(OCC5(O)CNC5)cc4C3=O)CC2)ccc1C [Example 138]"
result = "> 7.00"

[[record]]
molecule = "O=C1c2cccc(Br)c2CN1[C@H]1CC[C@@H](C(=O)Nc2ccc3c(c2)OC(F)(F)O3)CC1 [Example 186]"
result = "< 5.00"


**Query** Record request: pIC50 value, item COc1cc(NC(=O)[C@H]2CC[C@@H](N3Cc4c(cccc4C(F)(F)F)NC3=O)CC2)ccc1C [Example 70]
**Result** 6.00 to 7.00

**Query** # pIC50 lookup, item COc1ncc(NC(=O)[C@H]2CC[C@@H](N3Cc4c(C)cccc4C3=O)CC2)cc1Cl [Example 221]
**Result** 6.00 to 7.00

###

IC50 values by entry
molecular target: hOGG1 (Homo sapiens, UniProt O15527); assay: Biochemical fluorescence assay to measure enzymatic activity of hOGG1 (OGG1/APEX IC50); design: Protein His-hOGG1 (12-323) was prepared; His (N); host or cells: E. coli; details: 1 nM OGG1+2 nM APEX+6 nM dsDNA (8-oxo-dG substrate); pH 7.5; RT 40 min; read-out: OGG1/APEX IC50
Sequence (O15527 12-323): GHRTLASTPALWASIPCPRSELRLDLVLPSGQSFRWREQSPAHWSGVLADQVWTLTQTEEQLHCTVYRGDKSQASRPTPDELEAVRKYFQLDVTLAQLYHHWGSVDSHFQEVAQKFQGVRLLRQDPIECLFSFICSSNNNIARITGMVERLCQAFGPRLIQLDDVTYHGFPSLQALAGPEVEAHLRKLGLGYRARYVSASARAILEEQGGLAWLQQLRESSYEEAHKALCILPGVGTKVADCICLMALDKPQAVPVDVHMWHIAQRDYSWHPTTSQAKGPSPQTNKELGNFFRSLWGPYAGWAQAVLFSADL

[[record]]
compound = "Cc1cccc2c1CN([C@H]1CC[C@@H](C(=O)Nc3ccc4cc[nH]c4c3)CC1)C2=O [Example 276]"
result = "1 to 10 µM"

[[record]]
compound = "COc1cc(NC(=O)[C@H]2CC[C@@H](N3Cc4c(ccc(OCCN(C)C)c4C)NC3=O)CC2)ccc1C [Example 40]"
result = "1 to 10 µM"

[[record]]
compound = "COc1cc(NC(=O)[C@H]2CC[C@@H](N3Cc4c(Br)ccc(Cl)c4C3=O)CC2)ccc1C [Example 142]"
result = "0.1 to 1 µM"


// next item, IC50 requested
**Query** Would you kindly share the measured IC50 for Cc1cccc2c1CN([C@H]1CC[C@@H](C(=O)Nc3cccc(=O)[nH]3)CC1)C2=O [Example 248] ?
**Result** > 10 µM

###

Form field: Kd (one value per entry).
Molecular target: hOGG1 (Homo sapiens)
Experiment: Surface Plasma Resonance with hOGG1 to measure compound affinity (OGG1 SPR Kd)
Conditions: Biacore T-200, immobilized his-tagged OGG1; pH 7.4; 2% DMSO; single-cycle kinetics
Method: Surface Plasma Resonance with hOGG1 to Measure Compound Affinity (OGG1 SPR Kd); All the SPR studies were performed on a Biacore T-200 instrument (Cytiva life sciences) using series S NTA sensor chip (cat #BR-1005-32, Cytiva life sciences). Recombinant his-tagged OGG1 (mol. wt. 36003; ChemPartner, Shanghai, China) was immobilized on NTA sensor chip via Ni^2+/NTA chelation using NTA reagent kit (Cytiva life sciences; cat #289950) as per manufacturer's recommended protocol. […]

[[record]]
molecule = "COc1ccc(NC(=O)[C@]2(C)CC[C@@H](N3Cc4c(C)ccc(OC)c4NC3=O)CC2)cc1C (single isomer, unassigned)"
experimental_readout = "Kd"
result = "> 1000 nM"

[[record]]
molecule = "COc1cc(NC(=O)[C@H]2CC[C@@H](N3Cc4c(C)ccc(OC5CNC5)c4NC3=O)CC2)ccc1C"
experimental_readout = "Kd"
result = "10 to 100 nM"

[[record]]
molecule = "COc1ccc(NC(=O)[C@]2(C)CC[C@@H](N3Cc4c(C)ccc(OC)c4NC3=O)CC2)cc1Cl (single isomer, unassigned)"
experimental_readout = "Kd"
result = "> 1000 nM"


With those in mind, consider the next molecule.
**Query** Returns the measured Kd for the input molecule. Input: COc1ccc(NC(=O)[C@H]2CC[C@@H](N3Cc4c(C)ccc(OC)c4NC3=O)CC2)cc1C#N
**Result** 10 to 100 nM

Reference source: patent US20260317356A1
